This collection of values is drawn from patent US20100210568A1.

Procedure Summary: Cytotoxicity (dye uptake cell viability) in the HBV assay
Type: cell-based
Settings: human, HepG2-2.2.15 cells, % cell control
Endpoint Label: viability at 144 h, 10 micrograms per ml (%)
Enter your answer as a number in %; do not include the unit.

Problem: Dear colleague, I am looking for the recorded viability at 144 h, 10 micrograms per ml of the following molecule: `NC(=O)[C@@H]1CCCN1C(=O)[C@H](Cc1cnc[nH]1)NC(=O)[C@@H]1CCC(=O)N1`
Result: 87.4

---

Procedure Summary: Cytotoxicity testing in MRC-5 cells (CellTiter 96)
Format: cell-based, human
Settings: human, MRC-5 cells (embryonal lung fibroblasts), 6 days incubation, read-out: % Cell Viability
Endpoint Label: viability at 144 h (%)
Enter your answer as a number in %; do not include the unit.

Problem: Dear colleague, I am looking for the recorded viability at 144 h of the following compound: `NC(=O)[C@@H]1CCCN1C(=O)[C@H](Cc1cnc[nH]1)NC(=O)[C@@H]1CCC(=O)N1`
Result: 100
